Value source: ChEMBL document CHEMBL4616600

System: A-431
PROTOCOL_DETAILS: Antiproliferative activity against human A431 wild type cells measured after 72 hrs by Sulforhodamine B assay
Format: functional, cell-based
CONDITION_DETAILS: A-431, 72 h
OBSERVATION_TYPE: IC50 (µM)

Examples with their reported IC50 follow.
COMPOUND | OBSERVATION_TYPE | MEASURE_UNIT | TEST_RESULT
C=C1C(=O)O[C@@H]2C3O[C@]3(C)CC/C=C(\C)CC[C@@H]12 (stereo not given in full) | IC50 | µM | 2.57
C=C1CC(CBr)(c2ccccc2)OC1=O (racemic) | IC50 | µM | 1.48
C=C1C[C@]2(Cc3ccccc3[C@H]2Br)OC1=O | IC50 | µM | 2.09
C=C1CC(c2ccccc2)(C(Cl)c2ccccc2)OC1=O (racemic) | IC50 | µM | 2.77
CC(=O)O[C@H]1C(=O)[C@@]2(C)[C@H]([C@H](OC(=O)c3ccccc3)[C@]3(O)C[C@H](OC(=O)[C@H](O)[C@@H](NC(=O)c4ccccc4)c4ccccc4)C(C)=C1C3(C)C)[C@]1(OC(C)=O)CO[C@@H]1C[C@@H]2O | IC50 | µM | 0.002

(P) C=C1CC(CBr)(c2ccccc2F)OC1=O (racemic)
(Q) C=C1CC(CBr)(c2ccc(F)cc2)OC1=O (racemic)
## Input Hi there, can you help? I need to know whether P or Q has lower measured IC50. # answer = label of selected item
## Output Q
(Q: 0.8 µM, P: 1.7 µM)

(1) C=C1C[C@](CCl)(c2ccccc2)OC1=O
(2) C=C1CC(CI)(c2ccccc2)OC1=O (racemic)
## Input Higher IC50: 1 or 2 ? Refer to your chosen entry by its label in the reply.
## Output 1

(A) C=C1CC(CF)(c2ccccc2)OC1=O (racemic)
(B) C=C1CC(C)(CBr)OC1=O (racemic)
## Input Pick the one with the larger IC50: A vs B Selection: enter the item's label.
## Output B

(A) C=C1C[C@]2(CCCC[C@H]2Br)OC1=O (racemic)
(B) C=C1CC(CBr)(c2ccccc2C)OC1=O (racemic)
## Input Which item exceeds the other in IC50, A or B ? Bench note: the answer is the label of the chosen record.
## Output A
(A: 21.2 µM, B: 5.5 µM)

(a) C=C1CC(CBr)(c2ccc(Cl)cc2)OC1=O (racemic)
(b) C=C1CC(CBr)(c2cccc(C)c2)OC1=O (racemic)
(c) C=C1CN(S(=O)(=O)c2ccc([N+](=O)[O-])cc2)CC(CBr)(c2ccccc2)OC1=O (racemic)
(d) C=C1CC(CBr)(c2ccccc2OC)OC1=O (racemic)
(e) C=C1C[C@@](CCl)(c2ccccc2)OC1=O
## Input Arrange these compounds by their IC50, starting with the largest number. # answer = labels listed in requested order
## Output e, c, b, d, a
(e: 43 µM, c: 21.2 µM, b: 4.5 µM, d: 2.4 µM, a: 1.1 µM)

(1) C=C1CC(CBr)(c2ccc(C(F)(F)F)cc2)OC1=O (racemic)
(2) C=C1CC(c2ccccc2)(C(C)Br)OC1=O (racemic)
(3) C=C1C[C@]2(CCCc3ccccc3[C@H]2Br)OC1=O
(4) C=C1CC(CI)(c2ccc(F)cc2)OC1=O (racemic)
## Input Returns the items ordered by IC50, from maximum to minimum. // ordering of labels required in reply
## Output 2, 3, 4, 1
(2: 5.24 µM, 3: 3.3 µM, 4: 1.9 µM, 1: 1.01 µM)

(I) C=C1CC2(CCCc3ccccc3C2Br)OC1=O (racemic)
(II) C=C1CC(CBr)(c2ccc(C)cc2)OC1=O (racemic)
(III) C=C1C[C@]2(CCc3ccccc3[C@H]2Br)OC1=O
(IV) C=C1CC[C@](CBr)(c2ccccc2)OC1=O
## Input Order the records, beginning with the lowest IC50 and ending with the highest. Submit the labels in the order that the ranking request calls for.
## Output I, II, III, IV
(I: 1.27 µM, II: 2.2 µM, III: 4.1 µM, IV: 10.9 µM)

(1) C=C1C[C@](CBr)(c2ccccc2)OC1=O
(2) C=C1CC(CO)(c2ccccc2)OC1=O (racemic)
## Input Lower IC50: 1 or 2 ? Lab log: write the label of the selected item as the result.
## Output 1
(1: 1.33 µM, 2: 4.06 µM)
